target: Human BCL-XL protein (N-terminal HiBiT tagged BCL-XL in HT1080 cells) (Homo sapiens); construct: expressed in transfected cells; host or cells: HT-1080 (ATCC CCL-121), stably transduced with lentivirus pLV-UBC-N-HiBiT-BCL-XL-PGK-puro and selected with puromycin; assay: HiBiT based degradation assay; assay type: cell-based; settings: BCL-XL degradation normalized with DMSO control; HT1080 cells expressing HiBiT-BCL-XL; 6 h
Sequence (Q07817 whole entry): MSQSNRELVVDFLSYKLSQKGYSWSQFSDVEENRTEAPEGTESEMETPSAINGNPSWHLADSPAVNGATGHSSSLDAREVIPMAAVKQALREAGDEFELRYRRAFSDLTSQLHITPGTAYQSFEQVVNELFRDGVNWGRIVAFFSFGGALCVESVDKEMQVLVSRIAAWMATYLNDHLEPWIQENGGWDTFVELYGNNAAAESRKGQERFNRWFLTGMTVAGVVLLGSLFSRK
measure name: Ymin (6 h)

compound | result value
Cc1c(OCCCN2CCN(CC(=O)N3CCN(c4ccc5c(C6CCC(=O)NC6=O)nn(C)c5c4)CC3)CC2)cccc1-c1ccc(N2CCc3cccc(C(=O)Nc4nc5ccccc5s4)c3C2)nc1C(=O)O (stereo not drawn) [Compound 140] | A (Ymin < 50%)
Cc1cc(OCCCC2CCN(CC(=O)Nc3ccc4c(C5CCC(=O)NC5=O)nn(C)c4c3)CC2)ccc1-c1ccc(N2CCc3cccc(C(=O)Nc4nc5ccccc5s4)c3C2)nc1C(=O)O (stereo not drawn) [Compound 184] | A (Ymin < 50%)
